- system: Vif function of inhibiting A3G CDA (Human immunodeficiency virus type 1 group M subtype B, UniProt P69723)
- Sequence (P69723 whole entry): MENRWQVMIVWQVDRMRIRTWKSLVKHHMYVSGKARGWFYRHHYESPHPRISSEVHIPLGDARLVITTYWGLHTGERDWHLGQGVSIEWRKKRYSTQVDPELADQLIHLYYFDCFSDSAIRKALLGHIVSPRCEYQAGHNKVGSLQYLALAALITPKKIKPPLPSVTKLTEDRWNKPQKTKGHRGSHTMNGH
- protocolNotes: biochemical
- Format: biochemical, HIV-1
- conditionParameters: 10 μM compounds; 20% cutoff stringency, i.e. 20% increase in A3G CDA versus controls; positive control set as 1
endpointLabel: hit for restoring A3G CDA in the presence of Vif

Give the measured hit for restoring A3G CDA in the presence of Vif of Oc1ccccc1-c1nc2c3ccccc3c3ccccc3c2[nH]1 .
hits

Give the measured hit for restoring A3G CDA in the presence of Vif of O=c1c2ccccc2ncn1-c1ccc(Cl)cc1 .
hits

Give the measured hit for restoring A3G CDA in the presence of Vif of C[C@@H]1C/C=C/C=C/C=C/C=C/[C@H](O[C@@H]2O[C@H](C)[C@@H](O)[C@H](N)[C@@H]2O)C[C@@H]2O[C@](O)(C[C@@H](O)C[C@H]3O[C@@H]3/C=C/C(=O)O1)C[C@H](O)[C@H]2C(=O)O [IV, natamycin, reference compound] .
hits

###

- System: CEM cells
- protocolNotes: Presto Blue Cytotoxicity Assay
- conditionParameters: read-out: IC50 cytotoxicity, FIG. 6C
endpointLabel: IC50

Give the measured IC50 of O=S(=O)(O)c1cc(N=Nc2cc(S(=O)(=O)O)c3cccnc3c2O)ccc1C=Cc1ccc(N=Nc2cc(S(=O)(=O)O)c3cccnc3c2O)cc1S(=O)(=O)O .
~50 µM
